Exercise: for every item that follows, state its recorded pKd.
# measurement_target: B.1.1.7 Spike (SARS-CoV-2 spike protein, UK variant B.1.1.7) (SARS-CoV-2)
Answers are plain numbers, as −log10 of the molar value.

{"binder": "Ab 38 scFv-Fc (scFv, V domains shown) VH: QVTLKESGPTLVKPTQTLTLTCTFSGFSLTTSGVSVGWIRQPPGKALEWLALIHWDDDKRYSPSLRSRLTITRDTSKNQVVLTVTDMDPADTGTYYCASFIMTVYAEYFEDWGQGTLVTVSS VL: EIVLTQSPATLSVSPGERATLSCRASQSVSSNLAWYQQKPGQAPRLLMYDVSTRATGIPARFSGSGSGTEFSLTISSLQSEDFAVYYCQQRGAWPLTFGGGTKVEIK", "pKd": 11.83}

Now turn to the next binder.
Which pKd value belongs to Ab 29 scFv-Fc (scFv, V domains shown) VH: QVQLQQSGPGLVKPSQTLSLTCAISGDSVSSYSDAWNWIRQSPSRGLEWLGRTYYRSKWYNDYAVSVKSRITINPDTSKNQFSLQLSSVTPEDTAVYYCAREIVATTPFRNYYYGMDVWGQGTTVTVSS VL: NFMLTQPHSVSESPGNTVTISCTRTSGSIASNYVQWYQQRPGSSPTTVIFQDKLRPSGVPDRFSGSIDSSSNSASLTISGLKTEDEADYYCQSYDSSSLWVFGGGTKLTVL ?
9.16
